Tested on: Severe acute respiratory syndrome coronavirus 2
Assay remarks: Inhibition of 6His-tagged recombinant SARS CoV-2 MPro extracted from Escherichia coli BL21 (DE3) using Dabcyl-KNSTLQSGLRKE-Edans as substrate at 20 uM preincubated for 30 mins followed by substrate addition measured for 1 hr by FRET assay relative to control
Details: time 90.0 min
// thresholds for inhibition classes: group 1: < 30%; group 2: ≥ 30% and < 80%; group 3: ≥ 80%

As a guide, the following entries are already answered.
Molecule | Target or system | Label value
CC#CC(=O)OCc1cc(-c2ccc(NC(C)=O)cc2)nc2ccccc12 | Severe acute respiratory syndrome coronavirus 2 | group 1
CC(=O)Nc1ccc(-c2cc(COC(=O)C(Cl)Cl)c3ccccc3n2)cc1 | Severe acute respiratory syndrome coronavirus 2 | group 1
CC(=O)Nc1ccc(-c2cc(C=O)c3ccccc3n2)cc1 | Severe acute respiratory syndrome coronavirus 2 | group 3
C=CC(=O)OCc1cc(-c2ccc(-c3ccccc3)cc2)nc2ccccc12 | Severe acute respiratory syndrome coronavirus 2 | group 1
CCC(=O)Nc1ccc(-c2cc(COC(=O)CBr)c3ccc(Br)cc3n2)cc1 | Severe acute respiratory syndrome coronavirus 2 | group 2
C=CC(=O)OCc1cc(-c2ccc(NC(=O)C(F)(F)F)cc2)nc2ccccc12 | Severe acute respiratory syndrome coronavirus 2 | group 2

Q: Band for the recorded inhibition of CC(=O)Nc1ccc(-c2cc(COC(=O)/C=C/C(F)(F)F)c3ccccc3n2)cc1 ?
A: group 1

Q: Any idea which band CC(=O)Nc1ccc(-c2cc(COC(=O)C(=O)c3cccs3)c3ccccc3n2)cc1 is in?
A: group 1

Q: Exercise: read the entry C=CC(=O)OCc1cc(-c2ccc(NC(C)=O)cc2)nc2ccccc12 and state which class it falls under.
A: group 3

Q: State the class of the molecule shown: C#Cc1cc(-c2ccc(NC(C)=O)cc2)nc2ccccc12
A: group 1

Q: Tag the class for CC(=O)Nc1ccc(-c2cc(COC(=O)C(=O)c3ccccc3)c3ccccc3n2)cc1
A: group 1

Q: Exercise: read the entry C=C(F)C(=O)OCc1cc(-c2ccc(NC(C)=O)cc2)nc2ccccc12 and state which class it falls under.
A: group 1

Q: Pick a category. Item: CC(C)C[C@H](NC(=O)OCc1ccccc1)C(=O)N[C@@H](C[C@@H]1CCNC1=O)C(O)S(=O)(=O)O (stereo partly drawn)
A: group 3

Q: Form: Item = CC(=O)Nc1ccc(-c2cc(COC(=O)CBr)c3cc(F)ccc3n2)cc1 ; Class = ?
A: group 2

###

Test system: Severe acute respiratory syndrome coronavirus 2
Assay remarks: Inhibition of 6His-tagged recombinant SARS CoV-2 MPro extracted from Escherichia coli BL21 (DE3) using Dabcyl-KNSTLQSGLRKE-Edans as substrate at 20 uM preincubated for 30 mins followed by substrate addition measured for 1 hr by FRET assay relative to control
Details: time 90.0 min
In this section we review reported inhibition values for a set of molecules.
Respond numerically; units are % and should not be typed.

Q: Which value of inhibition has been reported for C=CC(=O)OCc1cc(-c2ccc(NC(=O)C3CC3)cc2)nc2ccccc12 in the records?
A: 80

Q: What does the record list as inhibition for CC(=O)Nc1ccc(-c2cc(COC(=O)CBr)c3cc(C)ccc3n2)cc1 ?
A: 79

Q: Name the recorded inhibition for C=CC(=O)OCc1cc(-c2ccc(NC(=O)CC)cc2)nc2ccccc12 .
A: 98

Q: Using the record for C=CC(=O)OCc1cc(-c2ccc(NC(=O)C(C)(C)C)cc2)nc2ccccc12 , report its inhibition.
A: 37

Q: Sample CC(=O)Nc1ccc(-c2cc(C(=O)Oc3ccccc3)c3ccccc3n2)cc1 — what was its inhibition?
A: 3

Q: Could you share which inhibition value was measured for CC(=O)Nc1ccc(-c2cc(COC(=O)CBr)c3ccccc3n2)cc1 ?
A: 97

Q: Entry CC(=O)Nc1ccc(-c2cc(COC(=O)CBr)c3ccc(Cl)cc3n2)cc1 : reported inhibition = ?
A: 92

Q: // lookup inhibition for CC(=O)Nc1ccc(-c2cc(COC(=O)CC#N)c3ccccc3n2)cc1
A: 32

Q: Param item = CCOC(OCC)C(=O)OCc1cc(-c2ccc(NC(C)=O)cc2)nc2ccccc12 ; retrieve measured inhibition.
A: 38
